System: Staphylococcus aureus
Assay: Antibacterial activity against methicillin-resistant Staphylococcus aureus clinical isolate MRSA-14 measured after 16 to 18 hrs by CLSI method
Assay type: functional
Conditions: time 16-18 hrs
As shown below, each of these molecules has a reported MIC value.
MEASUREMENT LABEL: MIC

COc1cc(OCCCCCN2CCSCC2)c(CC=C(C)C)c2c1C(=O)CC(c1ccc(OCCCCCN3CCSCC3)cc1)O2 (stereo not drawn) :: > 128 µg/mL
COc1cc(OCCCN2CCOCC2)c(CC=C(C)C)c2c1C(=O)CC(c1ccc(OCCCN3CCOCC3)cc1)O2 (stereo not drawn) :: > 128 µg/mL
COc1cc(OCCCCCN(CC(C)C)CC(C)C)c(CC=C(C)C)c2c1C(=O)CC(c1ccc(OCCCCCN(CC(C)C)CC(C)C)cc1)O2 (stereo not drawn) :: > 128 µg/mL
